# SYSTEM: T1, human EphB4 (Homo sapiens, UniProt P54760)
# T1 construct: a protein of the extracellular region of each human Eph receptor fused with the SEAP protein and the His tag; made in house; host or cells: Expi293F cells
# T1 sequence (P54760 16-539 limits assumed): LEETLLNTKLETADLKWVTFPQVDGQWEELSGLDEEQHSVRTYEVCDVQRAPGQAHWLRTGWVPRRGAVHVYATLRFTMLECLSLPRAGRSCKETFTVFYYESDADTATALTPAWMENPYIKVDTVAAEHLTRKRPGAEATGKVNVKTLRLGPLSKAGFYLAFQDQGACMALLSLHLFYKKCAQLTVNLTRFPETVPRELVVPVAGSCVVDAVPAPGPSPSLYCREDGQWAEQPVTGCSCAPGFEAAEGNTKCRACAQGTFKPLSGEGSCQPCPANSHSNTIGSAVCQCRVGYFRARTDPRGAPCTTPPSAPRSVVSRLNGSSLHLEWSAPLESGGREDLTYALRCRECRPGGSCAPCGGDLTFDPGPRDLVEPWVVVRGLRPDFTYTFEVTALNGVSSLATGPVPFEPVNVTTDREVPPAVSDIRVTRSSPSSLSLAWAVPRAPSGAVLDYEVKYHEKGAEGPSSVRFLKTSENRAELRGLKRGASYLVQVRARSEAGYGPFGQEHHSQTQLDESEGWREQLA
# MEASUREMENT_DESCRIPTION: Selectivity ELISA of humanized antibodies for human Eph receptor
# Type: binding
# APPLIED_CONDITIONS: coated protein 1 nM
REPORTED_ENDPOINT: hEphB4-SEAP-: absorbance at 450 nm, percentage with respect to hEphA4-SEAP-His as 100% (%)

[[record]]
molecule = "142 (antibody, V domains shown, synthetic humanized antibody heavy chain variable region sequence; synthetic humanized antibody light chain variable region sequence) VH: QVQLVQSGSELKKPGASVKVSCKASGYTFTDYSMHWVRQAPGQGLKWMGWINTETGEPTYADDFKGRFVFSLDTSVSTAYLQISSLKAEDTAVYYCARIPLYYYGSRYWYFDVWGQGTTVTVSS VL: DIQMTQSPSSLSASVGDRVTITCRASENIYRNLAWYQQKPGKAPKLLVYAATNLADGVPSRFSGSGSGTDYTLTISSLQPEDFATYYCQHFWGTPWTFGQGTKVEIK"
result_unit = "%"
numeric_result = 5.7


// data source = patent US10428140B2
